# studySystem: JAK3 (Homo sapiens, UniProt P52333)
# Construct: endogenous in cells
# Sequence (P52333 whole entry): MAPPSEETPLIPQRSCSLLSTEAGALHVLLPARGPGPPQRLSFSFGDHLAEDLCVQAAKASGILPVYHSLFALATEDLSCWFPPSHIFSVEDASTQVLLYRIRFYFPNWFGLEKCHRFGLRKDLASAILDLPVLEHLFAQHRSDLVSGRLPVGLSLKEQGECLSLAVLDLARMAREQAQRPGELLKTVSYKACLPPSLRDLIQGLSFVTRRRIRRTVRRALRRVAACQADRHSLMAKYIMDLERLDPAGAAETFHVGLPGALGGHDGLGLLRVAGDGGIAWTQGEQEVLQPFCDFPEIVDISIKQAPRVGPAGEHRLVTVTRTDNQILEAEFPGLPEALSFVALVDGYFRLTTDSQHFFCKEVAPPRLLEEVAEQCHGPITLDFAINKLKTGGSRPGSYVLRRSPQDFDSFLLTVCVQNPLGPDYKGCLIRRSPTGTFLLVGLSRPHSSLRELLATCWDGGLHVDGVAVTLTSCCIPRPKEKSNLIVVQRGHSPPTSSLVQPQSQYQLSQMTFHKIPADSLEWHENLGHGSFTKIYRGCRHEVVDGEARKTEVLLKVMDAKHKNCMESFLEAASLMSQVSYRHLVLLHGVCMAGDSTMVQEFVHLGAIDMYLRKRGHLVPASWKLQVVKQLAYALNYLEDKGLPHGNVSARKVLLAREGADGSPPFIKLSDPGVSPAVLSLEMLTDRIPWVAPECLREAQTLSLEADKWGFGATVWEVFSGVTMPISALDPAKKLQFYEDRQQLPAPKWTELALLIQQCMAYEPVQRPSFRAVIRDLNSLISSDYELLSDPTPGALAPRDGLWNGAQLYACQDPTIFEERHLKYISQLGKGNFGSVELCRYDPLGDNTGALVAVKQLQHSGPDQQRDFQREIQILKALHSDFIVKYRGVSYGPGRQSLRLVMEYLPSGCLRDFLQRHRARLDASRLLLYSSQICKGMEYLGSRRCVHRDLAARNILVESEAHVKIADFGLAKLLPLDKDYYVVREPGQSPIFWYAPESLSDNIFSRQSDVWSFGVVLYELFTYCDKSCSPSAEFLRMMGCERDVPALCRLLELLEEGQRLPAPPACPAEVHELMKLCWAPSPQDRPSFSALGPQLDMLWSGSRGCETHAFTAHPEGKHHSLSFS
# assayExplanation: Kinobeads assay, JAK3
# details: mixed Molt4/Ramos cell lysate, dot blot detection
recordedEndpoint: IC50

Would you please look over these solved cases?
- N#Cc1ccccc1Cn1ncc2cnc(Nc3cnn(CC(=O)N4CCOCC4)c3)nc21: < 100 nM
- Cn1ccc(Nc2ncc3cnn(Cc4ccccc4F)c3n2)c1: < 100 nM
- CCn1cc(Nc2ncc3cnn(Cc4ccccc4C#N)c3n2)cn1: < 100 nM

Using the record for Cc1nn(CC(F)F)cc1Nc1ncc2cnn(Cc3ccccc3)c2n1 , report its IC50.
100 to 1000 nM

Using the record for CNC(=O)Cn1cc(Nc2ncc3cnn(Cc4cccc(F)n4)c3n2)cn1 , report its IC50.
< 100 nM
